# System: Mycobacterium tuberculosis
# procedure_text: Antitubercular activity against Mycobacterium tuberculosis H37Rv
# Assay type: functional
measured_quantity: MIC (µg/mL)
Numbers only, in µg/mL.

Nc1ccc2c(c1)-c1ccccc1C2	32
Nc1ccc2[nH]c3ccccc3c2c1	16
Nc1ccc2oc3ccccc3c2c1	64

We next turn to a different compound, shown below.
Please fill in: MIC reported for "Nc1ccc2sc3ccccc3c2c1" = 128
